STUDY_SYSTEM: MOR-1-PK (mouse, UniProt P42866 1-398)
Sequence (P42866 whole entry): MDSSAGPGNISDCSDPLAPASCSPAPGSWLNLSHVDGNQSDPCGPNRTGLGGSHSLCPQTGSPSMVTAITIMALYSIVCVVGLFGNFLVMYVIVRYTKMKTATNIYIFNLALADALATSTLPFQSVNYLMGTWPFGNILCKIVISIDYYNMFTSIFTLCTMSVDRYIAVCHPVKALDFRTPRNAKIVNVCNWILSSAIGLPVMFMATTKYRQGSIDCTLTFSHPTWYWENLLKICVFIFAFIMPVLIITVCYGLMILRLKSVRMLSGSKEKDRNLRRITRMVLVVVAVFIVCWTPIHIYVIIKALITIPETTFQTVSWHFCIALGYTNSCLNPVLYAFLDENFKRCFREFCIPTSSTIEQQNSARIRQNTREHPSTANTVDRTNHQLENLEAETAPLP
EXPERIMENTAL_PROTOCOL: radioligand binding
Where no end group is shown, it is not given here.
MEASURE: pKi
Scale note: pKi = -log10(concentration in M).

Item under review: YGGFMTSEKSQTPLVTLFKNAIIKNAYKKGE (not fully specified) [β-endorphin] . Reported pKi?
7.98
